experiment: Thermal stability test (content by HPLC, visual discoloration); assay type: physicochemical; conditions: HPLC, start of storage at 40±2 °C and 75±5% RH
Counter-ions that a name gives are not always drawn.
Reported Content at 0 weeks values for the following molecules.

- molecule: "CCOc1ccccc1OC[C@@H]1CNCCO1 [Example 13, (S)-viloxazine fumarate]"
  Content at 0 weeks (%): 99.0
- molecule: "CCOc1ccccc1OC[C@@H]1CNCCO1 [Example 11, (S)-viloxazine trifluoroacetate]"
  Content at 0 weeks (%): 99.0
- molecule: "CCOc1ccccc1OCC1CNCCO1 (racemic) [Comparative Example 1, (R,S)-viloxazine hydrochloride]"
  Content at 0 weeks (%): 99.5

* * *

Reported Content at 0 weeks values for the following compounds.
assay: Thermal stability test (content by HPLC, visual discoloration); format: physicochemical; conditions: HPLC, start of storage at 40±2 °C and 75±5% RH
Counter-ions that a name gives are not always drawn.

- compound: "CCOc1ccccc1OC[C@@H]1CNCCO1 [Example 14, (S)-viloxazine maleate]"
  value-units: "%"
  Content at 0 weeks: 99.1
- compound: "CCOc1ccccc1OC[C@H]1CNCCO1 [Comparative Example 2, (R)-viloxazine hydrochloride, reference compound]"
  value-units: "%"
  Content at 0 weeks: 99.2
- compound: "CCOc1ccccc1OC[C@@H]1CNCCO1 [Example 10, (S)-viloxazine acetate]"
  value-units: "%"
  Content at 0 weeks: 99.6
- compound: "CCOc1ccccc1OC[C@@H]1CNCCO1 [Example 7, (S)-viloxazine sulfate]"
  value-units: "%"
  Content at 0 weeks: 99.3
- compound: "CCOc1ccccc1OC[C@@H]1CNCCO1 [Example 15, (S)-viloxazine citrate]"
  value-units: "%"
  Content at 0 weeks: 99.0
- compound: "CCOc1ccccc1OC[C@@H]1CNCCO1 [Example 9, (S)-viloxazine nitrate]"
  value-units: "%"
  Content at 0 weeks: 98.2
- compound: "CCOc1ccccc1OC[C@@H]1CNCCO1 [Example 12, (S)-viloxazine oxalate]"
  value-units: "%"
  Content at 0 weeks: 99.1
